EXPERIMENTAL_SYSTEM: full length KDR receptor in NIH3T3 cells (Homo sapiens)
Construct: NIH3T3 cells expressing the full length KDR receptor were grown in DMEM; expressed in transfected cells; host or cells: NIH3T3 cells (G418 selection)
Sequence (P35968 20-1356): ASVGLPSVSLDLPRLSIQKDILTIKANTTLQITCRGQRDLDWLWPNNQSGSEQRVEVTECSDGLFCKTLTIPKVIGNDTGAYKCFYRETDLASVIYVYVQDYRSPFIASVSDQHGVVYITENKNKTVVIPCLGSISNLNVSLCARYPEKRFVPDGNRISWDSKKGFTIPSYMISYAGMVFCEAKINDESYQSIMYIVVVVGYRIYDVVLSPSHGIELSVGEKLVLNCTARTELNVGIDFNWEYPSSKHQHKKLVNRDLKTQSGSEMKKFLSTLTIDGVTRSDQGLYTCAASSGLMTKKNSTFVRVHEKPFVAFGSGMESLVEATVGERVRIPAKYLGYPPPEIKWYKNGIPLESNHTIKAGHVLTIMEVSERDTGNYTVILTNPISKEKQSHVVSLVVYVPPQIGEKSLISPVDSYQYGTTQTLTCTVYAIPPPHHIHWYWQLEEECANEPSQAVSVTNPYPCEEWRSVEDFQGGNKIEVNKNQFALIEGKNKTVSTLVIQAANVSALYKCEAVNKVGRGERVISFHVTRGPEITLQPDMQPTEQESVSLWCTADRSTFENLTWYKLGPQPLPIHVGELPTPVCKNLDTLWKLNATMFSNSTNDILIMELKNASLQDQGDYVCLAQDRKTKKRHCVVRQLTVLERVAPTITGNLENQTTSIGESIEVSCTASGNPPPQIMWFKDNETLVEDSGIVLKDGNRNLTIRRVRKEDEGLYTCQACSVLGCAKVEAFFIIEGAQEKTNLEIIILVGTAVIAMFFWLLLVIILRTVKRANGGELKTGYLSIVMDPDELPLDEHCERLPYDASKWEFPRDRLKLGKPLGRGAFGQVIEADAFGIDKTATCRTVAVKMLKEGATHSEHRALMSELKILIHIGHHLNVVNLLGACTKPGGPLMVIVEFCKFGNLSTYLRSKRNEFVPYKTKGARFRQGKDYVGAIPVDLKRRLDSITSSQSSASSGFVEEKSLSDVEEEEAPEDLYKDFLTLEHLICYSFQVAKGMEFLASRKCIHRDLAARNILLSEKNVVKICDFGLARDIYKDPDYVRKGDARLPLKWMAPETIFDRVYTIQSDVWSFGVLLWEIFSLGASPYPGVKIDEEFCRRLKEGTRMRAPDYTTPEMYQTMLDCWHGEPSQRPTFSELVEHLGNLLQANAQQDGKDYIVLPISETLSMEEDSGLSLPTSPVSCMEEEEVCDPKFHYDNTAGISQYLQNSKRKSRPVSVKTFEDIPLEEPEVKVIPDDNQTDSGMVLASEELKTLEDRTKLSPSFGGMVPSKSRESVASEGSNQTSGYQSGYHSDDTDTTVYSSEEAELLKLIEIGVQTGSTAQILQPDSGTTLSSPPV
EXPERIMENT_DESCRIPTION: Cell Mechanistic Assay-Inhibition of 3T3 KDR Phosphorylation
Assay type: cell-based
RUN_PARAMETERS: NIH3T3 cells expressing KDR, VEGF 30 ng/ml stimulation
pIC50: −log10 of the molar value.
Here the recorded pIC50 is given for each entry.

Use the examples below as a reference point.
>  <COMPOUND>
c1ccc2c(Nc3ccc4c(c3)CCC4)ncc(Cc3ccncc3)c2c1 [Example 6]

>  <EXPERIMENTAL_SYSTEM>
full length KDR receptor in NIH3T3 cells (Homo sapiens)

>  <pIC50>
≥ 7.70

$$$$
>  <COMPOUND>
CNC(=O)c1cc(COc2nnc(Nc3ccc(Cl)cc3)c3ccoc23)ccn1 [Example 14]

>  <EXPERIMENTAL_SYSTEM>
full length KDR receptor in NIH3T3 cells (Homo sapiens)

>  <pIC50>
≥ 7.70

$$$$
>  <COMPOUND>
Clc1ccc(Nc2nnc(Nc3ccc4ncsc4c3)c3sccc23)cc1 [Example 23]

>  <EXPERIMENTAL_SYSTEM>
full length KDR receptor in NIH3T3 cells (Homo sapiens)

>  <pIC50>
≥ 7.70

$$$$

Given the compound Brc1cccc(Nc2nnc(Nc3ccc4ncsc4c3)c3ccccc23)c1 [Example 101] , what is its reported pIC50?
≥ 7.70

Given the compound Clc1ccc(Nc2nnc(OCc3ccncc3)c3occc23)cc1 [Example 9] , what is its reported pIC50?
7.30 to 7.70

Given the compound Clc1ccc(Nc2nnc(Nc3ccc4ncsc4c3)c3ccccc23)cc1 [Example 105] , what is its reported pIC50?
≥ 7.70

Given the compound Clc1ccc(Nc2nnc(Nc3ccc4nn[nH]c4c3)c3ccccc23)cc1 [Example 96] , what is its reported pIC50?
≥ 7.70

Given the compound CC(C)c1ccc(Nc2nnc(Nc3ccc4ncsc4c3)c3ccccc23)cc1 [Example 102] , what is its reported pIC50?
≥ 7.70

Given the compound c1ccc2c(Nc3ccc4c(c3)CCC4)ncc(Sc3ccncc3)c2c1 [Example 2] , what is its reported pIC50?
≥ 7.70
